- system-name: IDH1 R132H (Homo sapiens, UniProt O75874, R132H)
- Sequence (O75874 whole entry R132H): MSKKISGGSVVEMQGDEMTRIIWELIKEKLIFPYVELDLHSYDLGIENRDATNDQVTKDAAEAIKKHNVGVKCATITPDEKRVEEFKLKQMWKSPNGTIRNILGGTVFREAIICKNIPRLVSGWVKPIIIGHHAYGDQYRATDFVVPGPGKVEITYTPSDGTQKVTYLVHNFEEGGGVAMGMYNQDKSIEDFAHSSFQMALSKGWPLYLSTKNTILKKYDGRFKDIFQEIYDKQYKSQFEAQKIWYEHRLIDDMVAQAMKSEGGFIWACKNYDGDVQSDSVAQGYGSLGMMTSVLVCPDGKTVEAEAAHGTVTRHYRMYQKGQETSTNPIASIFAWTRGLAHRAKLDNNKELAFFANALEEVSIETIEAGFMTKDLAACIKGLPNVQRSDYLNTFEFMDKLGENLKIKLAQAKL
- experimental-details: IDH1 R132H enzymatic assay (NADPH depletion coupled to diaphorase/resazurin)
- Assay type: biochemical
- details: IDH1 R132H enzymatic inhibition, IC50 class
pIC50: −log10 of the molar value.
readout-label: pIC50

Previously resolved entries follow.
test-smiles	pIC50
CSc1ccccc1-n1c2c(cc(-c3nc(-c4ccc(Cl)cc4)cs3)c1=O)C(=O)CC(C)(C)C2	5.30 to 6.00
CN(C)c1ccccc1-n1c2c(cc(-c3nc(-c4ccc(Cl)cc4)cs3)c1=O)C(=O)CC(C)(C)C2	6.00 to 6.52
CCc1cccc(CC)c1-n1c(CC(C)C)c(C(=O)NCC(C)(C)O)cc(-c2nc(-c3ccc(Cl)cc3)cs2)c1=O	6.00 to 6.52

Which pIC50 is listed for `CCc1cccc(CC)c1-n1c(C(C)C)c(C(=O)NCCO)cc(-c2nc(-c3ccc(Cl)cc3)cs2)c1=O` ? > 6.52

Which pIC50 is listed for `CCOc1ccc(F)cc1-n1c(C=C(C)C)c(C(=O)N2CCNCC2)cc(-c2nc(-c3ccc(C(F)F)cc3)cs2)c1=O` ? > 6.52

Which pIC50 is listed for `COc1ncc(F)cc1-n1c(C=C(C)C)c(C(=O)N2CCNCC2)cc(-c2nc(-c3ccc(Cl)cc3)cs2)c1=O` ? > 6.52

Which pIC50 is listed for `CN1CCN(Cc2ccc(-n3c4c(cc(-c5nc(-c6ccc(Cl)cc6)cs5)c3=O)C(=O)CCC4)cc2)CC1` ? < 4.70

###

- system-name: IDH1 R132C (Homo sapiens, UniProt O75874, R132C)
- Sequence (O75874 whole entry R132C): as the sequence (O75874 whole entry R132H) above, with H132C counted along it
- experimental-details: IDH1 R132C enzymatic assay (NADPH depletion coupled to diaphorase/resazurin)
- Assay type: biochemical
- details: IDH1 R132C enzymatic inhibition, IC50 class
pIC50: −log10 of the molar value.
This listing pairs molecules with measured pIC50.

Previously resolved entries follow.
test-smiles	readout-label	data-value
COc1ccc(OC)c(-n2c3c(cc(-n4cc(-c5ccccc5)cn4)c2=O)C(=O)CC(C)(C)C3)c1	pIC50	< 4.70
COc1ccc(OC)c(-n2c3c(cc(-c4ccc(-c5ccccc5)cc4)c2=O)C(=O)CC(C)(C)C3)c1	pIC50	< 4.70
CCc1cccc(CC)c1-n1c(C(C)C)c(C(=O)NC)cc(-c2nc(-c3ccc(Cl)cc3)cs2)c1=O	pIC50	6.00 to 6.52
CCOc1ccc(F)cc1-n1c(C=C(C)C)c(C(=O)N2CCNCC2)cc(-c2nc(-c3ccc(Cl)cc3)cs2)c1=O	pIC50	> 6.52
CCOc1ccc(Cl)cc1-n1c(C=C(C)C)c(C(=O)N2CCNCC2)cc(-c2nc(-c3ccc(C(F)(F)F)nc3)cs2)c1=O	pIC50	6.00 to 6.52

Which pIC50 is listed for `CCc1cccc(CC)c1-n1c(C=C(C)C)c(C(=O)N2CCNC(=O)C2)cc(-c2nc(-c3ccc(Cl)cc3)cs2)c1=O` ? > 6.52

Which pIC50 is listed for `CCc1cccc(CC)c1-n1c(CC)c(C(=O)NC)cc(-c2nc(-c3ccc(Cl)cc3)cs2)c1=O` ? 6.00 to 6.52

###

This listing pairs molecules with measured IC50.
- system-name: IDH1 R132H (Homo sapiens, UniProt O75874, R132H)
- experimental-details: IDH1 R132H enzymatic assay (NADPH depletion coupled to diaphorase/resazurin)
- Type: biochemical
- details: IDH1 R132H enzymatic inhibition, IC50 class

Previously resolved entries follow.
molecule	IC50
CCc1ncc(OC)cc1-n1c(C=C(C)C)c(C(=O)N2CCNCC2)cc(-c2nc(-c3ccc(C(F)(F)F)nc3)cs2)c1=O [Compound 334]	300 to 1000 nM
CCc1cccc(CC)c1-n1c(CC(C)C)c(C(=O)N[C@H](CO)c2ccccc2)cc(-c2nc(-c3ccc(Cl)cc3)cs2)c1=O [Compound 10]	300 to 1000 nM
CCc1cccc(CC)c1-n1c(C)c(C(=O)N2CCNC(=O)C2)cc(-c2nc(-c3ccc(Cl)cc3)cs2)c1=O [Compound 138]	< 300 nM
CCc1cccc(CC)c1-n1c(C)c(C(=O)N2CCCNCC2)cc(-c2nc(-c3ccc(Cl)cc3)cs2)c1=O [Compound 66]	300 to 1000 nM
CCc1cccc(CC)c1-n1c2c(cc(-c3nc(-c4ccccc4C(F)(F)F)cs3)c1=O)C(=O)CC(C)(C)C2 [Compound 230]	5000 to 20000 nM

Which IC50 is listed for COc1ccc(OC)c(-n2c3c(cc(-c4nc(-c5ccc(Cl)cc5)cs4)c2=O)C(=O)CN(C)C3)c1 [Compound 253] ? 1000 to 5000 nM

Which IC50 is listed for COc1ccc(OC)c(-n2c3c(cc(-c4nc(-c5ccc(Cl)cc5)no4)c2=O)C(=O)CC(C)(C)C3)c1 [Compound 306] ? 5000 to 20000 nM

Source of measurements: patent US10703746B2
